# System: MOLT-4 leukemia
# testProtocol: NCI-60 one-dose screen, 48 h (100 = growth as untreated, 0 = no growth, -100 = all killed)
# measurementConditions: 10 µM unless noted
The panel holds about 83,000 compounds, 20% with a hit somewhere; the sample as a whole holds those more often.
Give label 1 when the value for growth is at least 90%. Give label 0 when it is less.

[[record]]
compound = "Cc1ccc(NC2CC(=O)N(c3c(C)cc(C)cc3C)C2=O)c(C)c1 (stereo not given)"
labelclass = "label 1"

[[record]]
compound = "COc1cc2c(cc1-c1c(C)noc1C)ncc1nc(C3CC3)n([C@H](C)COC(F)F)c12"
labelclass = "label 0"

[[record]]
compound = "CCCC(=O)N1CCCCC1CC (stereo not given)"
labelclass = "label 1"

[[record]]
compound = "C=C(C)[C@@H]1CC[C@]2(C)CC[C@]3(C)[C@H](CC[C@@H]4[C@@]5(C)CCCNC(C)(C)[C@@H]5CC[C@]43C)[C@@H]12"
labelclass = "label 0"

[[record]]
compound = "Nc1nc2c3ccncc3cc(-c3cccc(Cl)c3)c2c2cnccc12"
labelclass = "label 0"


* * *

# System: SF-268 CNS
# testProtocol: NCI-60 one-dose screen, 48 h (100 = growth as untreated, 0 = no growth, -100 = all killed)
# measurementConditions: 10 µM unless noted
Compounds without any hit were thinned out: in the full panel of roughly 83,000, 20% have a hit.
Catalogue of growth values
assayEndpoint: growth (%)

[[record]]
smilestext = "C(=C\\c1c[nH]c2ccccc12)/c1ccc2ccccc2n1"
assayendpoint = "growth"
observedmeasurement = 71.4

[[record]]
smilestext = "Cn1cc(-c2nc(-c3c[nH]c4ncccc34)cs2)c2ccccc21"
assayendpoint = "growth"
observedmeasurement = 99.3

[[record]]
smilestext = "Cn1c(/C(C#N)=C/c2ccc3ccccc3c2)cc2ccccc21"
assayendpoint = "growth"
observedmeasurement = 42.9

[[record]]
smilestext = "Cc1cc(C)n(Cc2cc(C(C)(C)C)cc(C(C)(C)C)c2)c(=O)c1C#N"
assayendpoint = "growth"
observedmeasurement = 94.8

[[record]]
smilestext = "C=C1CC[C@@H](C(=O)OC)Cc2nc(C)ccc21"
assayendpoint = "growth"
observedmeasurement = 109

[[record]]
smilestext = "COc1cccc(-c2nn(-c3ccccc3)cc2-c2ccnc(NCCCNS(=O)(=O)c3ccc(Cl)cc3)c2)c1"
assayendpoint = "growth"
observedmeasurement = 56.1

[[record]]
smilestext = "Cc1ccc(-c2ccc(Nc3ccccc3)nn2)cc1S(N)(=O)=O"
assayendpoint = "growth"
observedmeasurement = 97.4

[[record]]
smilestext = "COc1ccc(/C=C(\\C#N)c2cc3ccccc3n2C(C)=O)cc1"
assayendpoint = "growth"
observedmeasurement = 97.3

[[record]]
smilestext = "CCN(CC)C(=O)CCCCCn1c2ccccc2c2c3c(c4c5ccccc5[nH]c4c21)C(=O)N(O)C3=O"
assayendpoint = "growth"
observedmeasurement = 51.6

[[record]]
smilestext = "O=C(/C(=C(\\C(=O)c1ccccc1)c1ccccc1)c1ccccc1)c1ccccc1"
assayendpoint = "growth"
observedmeasurement = 56.2


* * *

# Tested on: RXF 393 renal
# testProtocol: NCI-60 one-dose screen, 48 h (100 = growth as untreated, 0 = no growth, -100 = all killed)
# measurementConditions: 10 µM unless noted
# Description: Cells are grown in 96 well plates and exposed to the test compound for 48 hours. Compounds are tested at a single concentration, which is 10^-5 M for most compounds. The reported endpoint is percent growth (GI% or GIPRCNT), where numbers from 0 - 100% represent growth inhibition, and numbers from -100% - 0 represent cell death. For example, a value of 40 represents 60% growth inhibition. A value of 0 means no net growth occurred over the course of the experiment. […]
The panel holds about 83,000 compounds, 20% with a hit somewhere; the sample as a whole holds those more often.
Catalogue of growth values
assayEndpoint: growth (%)

[[record]]
smilestext = "CC(C)/C=C/CC[C@](C)(O)[C@H]1CC[C@]2(C)[C@@H]1CC[C@@H]1[C@@]3(C)C/C(=C/c4cccc(C(F)(F)F)c4)C(=O)C(C)(C)[C@@H]3CC[C@]12C"
observedmeasurement = 105

[[record]]
smilestext = "NC1=NN=C2N(N)C(=O)c3cnn(-c4ccccc4)c3N2c2nc(-c3ccccc3)cc(-c3ccccc3)c21"
observedmeasurement = 138

[[record]]
smilestext = "O=[N+]([O-])c1cc(S(=O)(=O)c2ccc(F)c([N+](=O)[O-])c2)ccc1F"
observedmeasurement = 82.9

[[record]]
smilestext = "Nc1ncnc2nc(Br)[nH]c12"
observedmeasurement = 103


* * *

# System: M14 melanoma
# testProtocol: NCI-60 one-dose screen, 48 h
# measurementConditions: 10 µM unless noted
This is part of a sample that, as a whole, favours compounds with a hit. Of some 83,000 tested, about 20% had one in any assay. Active and inactive are the calls of the source. How the source made its calls: active means growth percent below 10; inactive means the rest.
Outcomes: active, inactive

[[record]]
smilestext = "COC(=O)[C@@H]1[C@H]2C[C@H]3c4[nH]c5cc(OC)ccc5c4CCN3C[C@@H]2C[C@H](OC(=O)/C=C/c2ccnc(OC)c2)[C@H]1OC"
labelclass = "inactive"

[[record]]
smilestext = "Fc1ccc(NCc2nnc(-c3ccc(Cl)cc3)o2)cc1"
labelclass = "inactive"

[[record]]
smilestext = "CC1(n2nnnc2N2CCCN(c3ncccc3N)CC2)CCC1"
labelclass = "inactive"

[[record]]
smilestext = "COc1cc(/C=C/c2cc(/C=C/c3ccc(O)c(OC)c3)n(-c3ccc(Cl)cc3)c(=O)n2)ccc1O"
labelclass = "inactive"

[[record]]
smilestext = "O=C(/C=C\\c1ccc2c(c1)OCO2)/C=C/c1ccc2c(c1)OCO2"
labelclass = "inactive"

[[record]]
smilestext = "COc1ccc2c(c1)c1nc3cc(C)c(C)cc3nc1n2CCN(C)C"
labelclass = "active"

[[record]]
smilestext = "CCCCC[C@H]1C/C=C2/C(=O)C(Cl)=C[C@@H]2C/C=C\\CCCC(=O)O1"
labelclass = "active"

[[record]]
smilestext = "COc1ccc2nc(-c3c(-c4ccccc4)nc4ncccn34)[nH]c2c1"
labelclass = "inactive"

[[record]]
smilestext = "C=C1C(=O)O[C@H]2[C@H]1CC/C(Cn1cc(-c3ccc(F)cc3)nn1)=C\\CC[C@@]1(C)O[C@@H]21"
labelclass = "active"


* * *

# System: M14 melanoma
# testProtocol: NCI-60 one-dose screen, 48 h (100 = growth as untreated, 0 = no growth, -100 = all killed)
# measurementConditions: 10 µM unless noted
Compounds without any hit were thinned out: in the full panel of roughly 83,000, 20% have a hit.
In plain terms, low growth, meaning strictly below -60%, gives class 1, and everything else gives class 0.

[[record]]
smilestext = "Fc1ccc2c(c1)c(-c1nc(-c3c[nH]c4ncccc34)cs1)cn2CCCN1CCCCC1"
labelclass = "class 1"

[[record]]
smilestext = "CCNCCCn1c2c(c3ccc([N+](=O)[O-])cc3c1=O)C(=O)c1cc(OC)cnc1-2"
labelclass = "class 0"

[[record]]
smilestext = "Cc1cc(N(CCCNc2ccnc3cc(Cl)ccc23)Cc2ccco2)nc(Cl)n1"
labelclass = "class 0"

[[record]]
smilestext = "C[C@]12CC[C@@H]3c4ccc(O)cc4CC[C@H]3[C@@H]1C[C@H](O)[C@@H]2O"
labelclass = "class 0"

[[record]]
smilestext = "Cc1cc(N2CCCC2)nc(N(CCNc2ccnc3cc(Cl)ccc23)Cc2ccco2)n1"
labelclass = "class 1"


* * *

# Tested on: RPMI-8226 leukemia
# testProtocol: NCI-60 one-dose screen, 48 h (100 = growth as untreated, 0 = no growth, -100 = all killed)
# measurementConditions: 10 µM unless noted
Compounds without any hit were thinned out: in the full panel of roughly 83,000, 20% have a hit.
Catalogue of growth values
assayEndpoint: growth (%)

[[record]]
compound = "CCCCC[C@H]1C/C=C2/C(=O)C(Cl)=C[C@@H]2C/C=C\\CCCC(=O)O1"
unitslabel = "%"
observedmeasurement = -23.5

[[record]]
compound = "c1ccc(CN2C(c3ccccc3)=Nc3ccccc3C2c2c[nH]c3ccccc23)cc1 (centres undefined)"
unitslabel = "%"
observedmeasurement = 4.99

[[record]]
compound = "CCOC(=O)c1ccc2c(c1)[n+](=O)c(C(=O)C1CCCS1)c(C(F)(F)F)n2[O-] (centres undefined)"
unitslabel = "%"
observedmeasurement = -45.3

[[record]]
compound = "CCN1CCN(C(=O)[C@]23CCC(C)(C)C[C@@H]2C2=CC[C@@H]4[C@@]5(C)C/C(=C/c6cccnc6)C(=O)C(C)(C)[C@@H]5CC[C@@]4(C)[C@]2(C)CC3)CC1"
unitslabel = "%"
observedmeasurement = 5.88

[[record]]
compound = "Cc1cc2nc3c4cc([N+](=O)[O-])cc([N+](=O)[O-])c4n(CCN(C)C)c3nc2cc1C"
unitslabel = "%"
observedmeasurement = 67.5

[[record]]
compound = "Cc1ccc(C)c2c1CCC2C(C)C (centres undefined)"
unitslabel = "%"
observedmeasurement = 96.7

[[record]]
compound = "COc1ccc2c(c1)c(-c1nc(-c3c[nH]c4ncccc34)cs1)cn2CCNC(=O)OC(C)(C)C"
unitslabel = "%"
observedmeasurement = 41.2

[[record]]
compound = "CC(C)(C)c1ccc(OCCCCCCCN2CCNCC2)cc1"
unitslabel = "%"
observedmeasurement = -17

[[record]]
compound = "C/C(=N\\Nc1cc(C)c2ccccc2n1)c1ccccn1"
unitslabel = "%"
observedmeasurement = -24


Source: PubChem BioAssay (NCI)
